Some substances, each annotated with its measured solubility.
Assay: Solubility in PBS
Assay type: physicochemical
Details: in PBS; read-out: Solubility
Procedure: The peptides were purified on a preparative Vydac C4 column by reversed-phase (RP)-HPLC using water (with 0.1% trifluoroacetic acid) and acetonitrile (0.1% trifluoroacetic acid). The purity and the retention times of the peptides were determined on an analytical Vydac C18 column using a gradient of 25%-58% acetonitrile in water containing 0.1% TFA. The purity of these peptides was also confirmed by mass spectrometry. The mass was in agreement with the calculated molecular weight. […]

INSERT INTO measurements (substance, measurement_kind, assay_result) VALUES
  ('H-DWLKAFYDKVAEKLKEAFPDWLKAFYDKVAEKLKEAF-OH [Peptide 37pA, reference compound]', 'solubility', '> 2000 µg/mL'),
  ('H-DWLKAFYDKVAEKLKEAF-OH [Peptide 18A, D-W-L-K-A-F-Y-D-K-V-A-E-K-L-K-E-A-F, reference compound]', 'solubility', '> 2000 µg/mL'),
  ('Ac-DWFKAFYDKVAEKLKEAF-NH2 [3F^3]', 'solubility', '1250 to 1400 µg/mL');

// next item, solubility requested
Exercise: Could you share which solubility value was measured for Ac-DWLKAFYDKVAEKLKEAF-NH2 [Peptide 2F] ?
Key: 1250 to 1400 µg/mL
